system: acetylcholine receptor
protocol-description: SPR, AchR immobilised on CM5 chip, peptide at 10 uM
Threshold 30 RU. Binding affinity (RU) below it: TRUE. Binding affinity (RU) at it or above: FALSE.

>>> category("KETAK [5mer-1180]")
"TRUE"
>>> category("KKGQYR [6mer-1-426]")
"FALSE"
>>> category("RRGVCR [6mer-1-415]")
"FALSE"
>>> category("RICIR [5mer-1196]")
"TRUE"
>>> category("RAADK [5mer-1198]")
"TRUE"
>>> category("KRVRQR [6mer-1-422]")
"FALSE"
>>> category("RRQVRK [6mer-1-418]")
"FALSE"
